Listed binders paired with reported pKd
MEASUREMENT_TARGET: T1, human CD123 Strep-II tagged Fc-fusion protein (human)
T1 construct: also called human CD123-Fc; recombinant CD123
T1 sequence (chain, as listed by the source limits assumed): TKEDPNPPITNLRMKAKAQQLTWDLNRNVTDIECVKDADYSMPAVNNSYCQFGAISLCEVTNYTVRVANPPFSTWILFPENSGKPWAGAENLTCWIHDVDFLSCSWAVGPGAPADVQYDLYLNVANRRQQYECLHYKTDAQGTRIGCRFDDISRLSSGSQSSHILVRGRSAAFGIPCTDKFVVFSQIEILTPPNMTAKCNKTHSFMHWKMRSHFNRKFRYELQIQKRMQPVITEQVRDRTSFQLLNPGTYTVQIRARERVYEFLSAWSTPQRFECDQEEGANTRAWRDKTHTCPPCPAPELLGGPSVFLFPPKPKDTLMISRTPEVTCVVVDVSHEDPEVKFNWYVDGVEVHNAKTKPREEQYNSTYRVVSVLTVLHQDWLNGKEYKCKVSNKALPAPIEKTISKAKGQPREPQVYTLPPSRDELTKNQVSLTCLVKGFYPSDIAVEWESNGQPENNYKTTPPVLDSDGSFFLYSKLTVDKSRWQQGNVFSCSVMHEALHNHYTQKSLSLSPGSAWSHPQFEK
RUN_DESCRIPTION: SPR Proteon XPR36, rat IgG captured, CD123-Fc analyte
Kindly note that pKd refers to -log10 of the concentration in mol/L and answer with the value alone.

9F6-G3 anti-CD123 rat IgG (hybridoma supernatant) (antibody, V domains shown, rat IgG; also called BFX - 9F6) VH: QVQLQESGPTLVKPGDSVKMSCKASGYTFTDYIIHWVKQSHGKSLEWIGYINPYSDGTNYNEKFKSKATLTVDKSTSTAYMEFSRLTSEDSAIYFCALNYGSYYAMDAWGQGTSVTVSS VL: DIQMTQSPASLSASLGETVTIECRPSEDIHSNVAWYQQKPGNSPQLLIYDASNLADGVPSRFSGSGSGTQYSLKINSLQSEDVASYFCHQYNIYPYTFGSGTKLELK; 10.40
6B10-E4 anti-CD123 rat IgG (hybridoma supernatant) (antibody, V domains shown, rat IgG; also called BFX - 6B10) VH: EVQLVESGGGLVQPGRSLKLSCAASGFTFSHYNMAWVRQAPKKGLEWVATITYDDHSTYYRDSVKGRFTISRDTAKSTLYLQMDSLRSEDTATYYCARLVNYAFAYWGQGTLVTVSS VL: NIVMTQSPKSMSISVGDRVTMNCKASQTVGNNIAWYQQKPGLSPQLLIDYASNRYTGVPNRFTGGGYGTDFILTINSVQAEDAAFYYCQRMYNSPTFGGGTKLELK; 9.82

As a next step, examine the binder that follows.
Fill in: pKd of 2F8-D6 anti-CD123 rat IgG (hybridoma supernatant) (antibody, V domains shown, rat IgG; also called BFX - 2F8) VH: QVQLKESGPGLVQPSQTLSLTCTVSGFSLTSYGVSWVRQPPGKGLEWIATISSAGSTYYDLVLKSRLSITRDTSKSQVFLKVHSLQTEDTAIYLCARDAPVFNYGSYNAMDSWGQGTSVTVSS VL: DIQMTQSPSFLSATVGDRVTINCKASQNINKYLNWYQQKLGEAPKRLIYNTNSLQTGIPSRFSGSGSGTDYTLTISSLQPEDVATYFCLQHKSGLTFGSGTKLEIK is ___
9.28
